Cited source for all entries: PubChem BioAssay (NCI)

- Test system: OVCAR-4 ovarian
- assay_summary: NCI tumour cell line growth inhibition, 48 h
parameter_measured: TGI

Prompt line: Requested field: TGI. Item: `COc1ccc(/C=C2\C[C@H]3[C@@H]4CC=C5C[C@@H](OC(C)=O)CC[C@]5(C)[C@H]4CC[C@]3(C)\C2=N\O)cc1OC`
Response line: > 100 µM

Prompt line: Requested field: TGI. Item: Cc1ccc(/C=C2/N=C(N/N=C\C(O)C(O)C(O)CO)NC2=O)cc1 (centres undefined)
Response line: > 100 µM

Prompt line: Requested field: TGI. Item: [N-]=[N+]=NC1(c2ccccc2)C(=O)C(Cl)=C(c2ccccc2)N(c2ccccc2)C1=O (centres undefined)
Response line: > 100 µM

Prompt line: Requested field: TGI. Item: `COC1=N[C@H](C(C)C)C(OC)=N[C@H]1Cc1ccc(C[C@@H]2N=C(OC)[C@@H](C(C)C)N=C2OC)s1`
Response line: > 100 µM

Prompt line: Requested field: TGI. Item: `CC1=NN(c2nc(N)nc(CSc3cc(Cl)c(C)cc3S(N)(=O)=O)n2)C(C)(C)C1`
Response line: > 10 µM

Prompt line: Requested field: TGI. Item: `O=C1/C(=C/c2ccc3c(c2)OCCO3)CCC/C1=C\c1ccc2c(c1)OCCO2`
Response line: 61 µM

Prompt line: Requested field: TGI. Item: CCOc1ccccc1NC(=O)C(=O)C(/C(=N/N)C(=O)OC)c1nc2ccc([N+](=O)[O-])cc2[nH]c1=O (centres undefined)
Response line: > 100 µM

Prompt line: Requested field: TGI. Item: `CSc1nc(Nc2ccccc2Cl)c2c(N)nn(C)c2n1`
Response line: > 100 µM

Prompt line: Requested field: TGI. Item: `Cn1nc2ccc([N+](=O)[O-])cc2[n+]1[O-]`
Response line: > 100 µM
